Target: HLA-A*68:01
Experiment: IEDB peptide-MHC binding, purified MHC/competitive/radioactivity; filed as Kd, often an IC50 or EC50 that approximates it; bounds were set here for any values at or beyond the usual limits of such assays
Details: source organism: Hepacivirus hominis
measured property: Kd

Entry RPALVFDITK ; Kd = 133 nM

* * *

Molecular target: HLA-A*02:01
Assay: IEDB peptide-MHC binding, purified MHC/direct/fluorescence; filed as Kd, often an IC50 or EC50 that approximates it; bounds were set here for any values at or beyond the usual limits of such assays
Conditions: source organism: Influenza A virus (A/mallard/NZ/1/97(H5N2))
pKd: −log10 of the molar value.
measured property: pKd

Entry IAGFIEGGW ; pKd = ≤ 4.70

* * *

Biological target: HLA-B*15:01
Assay: IEDB peptide-MHC binding, purified MHC/direct/fluorescence; filed as Kd, often an IC50 or EC50 that approximates it; bounds were set here for any values at or beyond the usual limits of such assays
Settings: source organism: Campylobacter jejuni
measured property: Kd

Summary: VSIRGSHHK , HLA-B*15:01, Kd = ≥ 5 µM

* * *

Target: HLA-A*29:02
Assay: IEDB peptide-MHC binding, purified MHC/competitive/radioactivity; filed as Kd, often an IC50 or EC50 that approximates it; bounds were set here for any values at or beyond the usual limits of such assays
Conditions: source organism: Mammarenavirus lassaense
measured property: pKd
Answers are plain numbers, as −log10 of the molar value.

Entry QYNLSHSYAV ; pKd = 5.89

* * *

Biological target: HLA-A*02:03
Assay: IEDB peptide-MHC binding, purified MHC/competitive/radioactivity; filed as Kd, often an IC50 or EC50 that approximates it; bounds were set here for any values at or beyond the usual limits of such assays
Conditions: source organism: Dengue virus 4 Philippines/H241/1956
measured property: pKd
Give bare numbers, as −log10 of the molar value.

Entry GLVSLLGSA ; pKd = 8.39

* * *

Field: Kd. Provide a value for each of the sequences that follow.
Biological target: HLA-B*27:05
Assay: IEDB peptide-MHC binding, purified MHC/direct/fluorescence; filed as Kd, often an IC50 or EC50 that approximates it; bounds were set here for any values at or beyond the usual limits of such assays
Conditions: source organism: Influenza A virus (A/camel/Mongolia/1982(H1N1))

item_sequence=KFFPSSSYR reported_result="≥ 20 µM"

Consider the additional sequence presented here.
Entry EKFFPSSSY ; Kd = ≥ 20 µM

* * *

Molecular target: HLA-C*08:02
Assay: IEDB peptide-MHC binding, purified MHC/direct/fluorescence; filed as Kd, often an IC50 or EC50 that approximates it; bounds were set here for any values at or beyond the usual limits of such assays
Conditions: source organism: Escherichia coli HS
pKd: −log10 of the molar value.
measured property: pKd

Summary: YLREHIRAM , HLA-C*08:02, pKd = ≤ 4.70

* * *

Molecular target: HLA-A*01:01
Experiment: IEDB peptide-MHC binding, purified MHC/competitive/fluorescence; filed as Kd, often an IC50 or EC50 that approximates it; bounds were set here for any values at or beyond the usual limits of such assays
Conditions: source organism: Mycobacterium tuberculosis variant bovis BCG str. Pasteur 1173P2
measured property: Kd

Entry RPRCAYLPF ; Kd = ≥ 20 µM

* * *

Target: HLA-B*07:02
Experiment: IEDB peptide-MHC binding, purified MHC/direct/fluorescence; filed as Kd, often an IC50 or EC50 that approximates it; bounds were set here for any values at or beyond the usual limits of such assays
Details: source organism: Homo sapiens
measured property: pKd
Numbers only, as −log10 of the molar value.

Entry APTGDLPRA ; pKd = 5.26

* * *

Field: pKd. Provide a value for each of the sequences that follow.
Molecular target: HLA-A*68:01
Test: IEDB peptide-MHC binding, purified MHC/competitive/radioactivity; filed as Kd, often an IC50 or EC50 that approximates it; bounds were set here for any values at or beyond the usual limits of such assays
Settings: source organism: Vaccinia virus WR
Answers are plain numbers, as −log10 of the molar value.

A selection of reference data follows.
item_sequence=FIQWTGGNIR measured_property=pKd reported_result=6.95
item_sequence=VTPEYIKDLK measured_property=pKd reported_result=6.43
item_sequence=DIFMRDWNSK measured_property=pKd reported_result=7.13
item_sequence=NIVTDLENR measured_property=pKd reported_result=7.66
item_sequence=TINVNSLALK measured_property=pKd reported_result=8.21

I would be grateful if you could provide pKd for each of the following entries.
1. SMTIREFPRK
2. GSSKGNCAIK
3. VSTGESSILR
4. CVDIFTEGK
5. GLYNHNNTTY

[5.90, 7.64, 6.92, 7.73, 6.03]

* * *

Molecular target: HLA-A*03:01
Assay: IEDB peptide-MHC binding, purified MHC/competitive/radioactivity; filed as Kd, often an IC50 or EC50 that approximates it; bounds were set here for any values at or beyond the usual limits of such assays
Conditions: source organism: SARS coronavirus Tor2
pKd: −log10 of the molar value.
Record Criterion met whenever pKd is at 7 or higher; record Criterion not met when lower.

Study these solved cases before continuing.
item_sequence=SLQVCVQTVR subject_of_test=HLA-A*03:01 label_class="Criterion not met"
item_sequence=FQGKFKKIVK subject_of_test=HLA-A*03:01 label_class="Criterion not met"
item_sequence=ILCFTIKRK subject_of_test=HLA-A*03:01 label_class="Criterion not met"
item_sequence=FFASFYYIWK subject_of_test=HLA-A*03:01 label_class="Criterion not met"
item_sequence=DQAMTQMYK subject_of_test=HLA-A*03:01 label_class="Criterion not met"

Please check the record AMPNLYKMQR and state if its pKd is at or above 7.
Criterion not met

Please check the record VVYRGTTTYK and state if its pKd is at or above 7.
Criterion met

Please check the record LTSMKYFVK and state if its pKd is at or above 7.
Criterion not met

Please check the record ATVAYFNMVY and state if its pKd is at or above 7.
Criterion not met

Please check the record QIGEYTFEK and state if its pKd is at or above 7.
Criterion met

Please check the record QTMLFTMLRK and state if its pKd is at or above 7.
Criterion met

Please check the record TQLYLGGMSY and state if its pKd is at or above 7.
Criterion met

* * *

Molecular target: HLA-C*14:02
Test: IEDB peptide-MHC binding, purified MHC/direct/fluorescence; filed as Kd, often an IC50 or EC50 that approximates it; bounds were set here for any values at or beyond the usual limits of such assays
Conditions: source organism: Variola virus
measured property: pKd
One number for each entry, as −log10 of the molar value.

Entry VIYEAVIHL ; pKd = 6.71

* * *

Molecular target: HLA-B*15:17
Experiment: IEDB peptide-MHC binding, purified MHC/competitive/fluorescence; filed as Kd, often an IC50 or EC50 that approximates it; bounds were set here for any values at or beyond the usual limits of such assays
Conditions: source organism: Homo sapiens
measured property: Kd

Entry FMDPGIFPR ; Kd = ≥ 20 µM

* * *

Target: HLA-B*15:42
Test: IEDB peptide-MHC binding, purified MHC/competitive/fluorescence; filed as Kd, often an IC50 or EC50 that approximates it; bounds were set here for any values at or beyond the usual limits of such assays
Conditions: source organism: Human herpesvirus 4 strain B95-8
measured property: Kd

Summary: RRRRRRAAL , HLA-B*15:42, Kd = ≥ 5 µM

* * *

Biological target: HLA-B*53:01
Experiment: IEDB peptide-MHC binding, purified MHC/competitive/radioactivity; filed as Kd, often an IC50 or EC50 that approximates it; bounds were set here for any values at or beyond the usual limits of such assays
Details: source organism: Dengue virus 1 Singapore/S275/1990
measured property: pKd
Answers are plain numbers, as −log10 of the molar value.

Summary: LPVLLGSLGC , HLA-B*53:01, pKd = 6.70

* * *

Target: HLA-A*02:01
Assay: IEDB peptide-MHC binding, purified MHC/direct/fluorescence; filed as Kd, often an IC50 or EC50 that approximates it; bounds were set here for any values at or beyond the usual limits of such assays
Conditions: source organism: Yersinia pestis Nepal516
pKd: −log10 of the molar value.
measured property: pKd

Entry LSEEIGLDL ; pKd = ≤ 4.70

* * *

Molecular target: HLA-B*27:05
Assay: IEDB peptide-MHC binding, purified MHC/direct/fluorescence; filed as Kd, often an IC50 or EC50 that approximates it; bounds were set here for any values at or beyond the usual limits of such assays
Settings: source organism: Camelpox virus M-96
Field: Kd. Provide a value for each of the sequences that follow.

item_sequence=SLFTEQAFY measured_property=Kd reported_result="≥ 20 µM"

Consider the additional sequence presented here.
Entry IHIPGDTLF ; Kd = ≥ 20 µM

* * *

Target: HLA-A*69:01
Assay: IEDB peptide-MHC binding, purified MHC/direct/fluorescence; filed as Kd, often an IC50 or EC50 that approximates it; bounds were set here for any values at or beyond the usual limits of such assays
Settings: source organism: Brucella abortus
measured property: Kd

Summary: GYSFSIPGY , HLA-A*69:01, Kd = ≥ 20 µM

Entry source: the Immune Epitope Database (IEDB)
